Sourced from paper PMC9455983

# tested_target: mu-opioid receptor (MOR) (Rattus norvegicus, UniProt P33535)
# Construct: Rat cortices were homogenized using 50 mM Tris, pH 7.4, and centrifuged at 16,500 rpm for 10 min; from tissue; host or cells: rat cortex membranes
# Sequence (P33535 whole entry): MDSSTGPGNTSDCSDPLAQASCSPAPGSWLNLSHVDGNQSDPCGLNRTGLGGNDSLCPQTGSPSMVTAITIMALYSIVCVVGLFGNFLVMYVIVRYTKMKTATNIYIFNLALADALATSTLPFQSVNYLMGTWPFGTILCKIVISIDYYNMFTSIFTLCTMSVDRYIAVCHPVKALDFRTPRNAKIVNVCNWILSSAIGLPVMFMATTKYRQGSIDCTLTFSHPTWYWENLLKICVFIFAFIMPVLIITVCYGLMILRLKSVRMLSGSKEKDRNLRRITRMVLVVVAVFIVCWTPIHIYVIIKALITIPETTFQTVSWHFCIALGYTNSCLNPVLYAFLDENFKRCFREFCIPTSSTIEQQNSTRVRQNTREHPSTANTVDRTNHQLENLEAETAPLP
# test_protocol: MOR radioligand competition binding assay ([3H]-DAMGO)
# measurement_context: Mu screening results, experiment 2; unit inferred; read-out: Ki (Exp 2)
# Experimental: MOR binding assay: Rat cortices were homogenized using 50 mM Tris, pH 7.4, and centrifuged at 16,500 rpm for 10 min. The pellets were resuspended in fresh buffer and incubated at 37 °C for 30 min. […] All three binding assays were terminated by filtration through GF/B filters, soaked in 5 mg/mL bovine serum albumin, 50 mM Tris, pH 7.4, on a Tomtec Mach II Harvester 96. […] Bound radioactivity was counted on a Wallac Betaplate Liquid Scintillation Counter. […]
pKi: −log10 of the molar value.

| compound | pKi |
| --- | --- |
| N=C1NC[C@H](Cc2ccc(O)cc2)N1C[C@H](Cc1ccc(O)cc1)N1C[C@H](Cc2ccccc2)NC1=N [1968-21] | 6.70 |
| N=C1NC[C@H](Cc2ccccc2)N1C[C@H](Cc1ccccc1)N1C[C@H](Cc2ccccc2)NC1=N [1968-65] | 5.55 |
| CC(C)C[C@H]1CN([C@@H](CC(C)C)CN2C(=N)NC[C@@H]2Cc2ccccc2)C(=N)N1 [1968-11] | 5.52 |
| Cc1cc(O)cc(C)c1C[C@H]1CN([C@@H](Cc2ccc(O)cc2)CN2C(=N)NC[C@@H]2Cc2c(C)cc(O)cc2C)C(=N)N1 [1968-56] | 7.16 |
| N=C1NC[C@H](Cc2ccc(O)cc2)N1C[C@H](Cc1ccc(O)cc1)N1C[C@H](Cc2ccc(O)cc2)NC1=N [1968-70] | 6.55 |
| CC(C)C[C@H]1CN([C@@H](Cc2ccc(O)cc2)CN2C(=N)NC[C@@H]2Cc2ccccc2)C(=N)N1 [1968-66] | 5.70 |
| C[C@H]1CNC(=N)N1C[C@H](Cc1ccc(O)cc1)N1C[C@H](Cc2ccccc2)NC1=N [1968-37] | 6.23 |
| N=C1NC[C@H](Cc2ccccc2)N1C[C@H](Cc1ccccc1)N1C[C@H](Cc2ccc(O)cc2)NC1=N [1968-2] | 6.85 |
| Cc1cc(O)cc(C)c1C[C@H]1CN([C@@H](CC(C)C)CN2C(=N)NC[C@@H]2C)C(=N)N1 [1968-44] | 6.61 |
| Cc1cc(O)cc(C)c1C[C@H]1CN([C@@H](Cc2c(C)cc(O)cc2C)CN2C(=N)NC[C@@H]2Cc2ccc(O)cc2)C(=N)N1 [1968-32] | 6.87 |
| CC(C)C[C@@H](CN1C(=N)NC[C@@H]1Cc1ccc(O)cc1)N1C[C@H](Cc2ccc(O)cc2)NC1=N [1968-26] | 6.12 |
| N=C1NC[C@H](Cc2ccccc2)N1C[C@H](Cc1ccc(O)cc1)N1C[C@H](Cc2ccc(O)cc2)NC1=N [1968-6] | 7.17 |
| Cc1cc(O)cc(C)c1C[C@H]1CNC(=N)N1C[C@H](Cc1ccccc1)N1C[C@H](Cc2ccccc2)NC1=N [1968-49] | 7.07 |
| Cc1cc(O)cc(C)c1C[C@H]1CN([C@@H](Cc2c(C)cc(O)cc2C)CN2C(=N)NC[C@@H]2C)C(=N)N1 [1968-22] | 8.14 |
| Cc1cc(O)cc(C)c1C[C@@H](CN1C(=N)NC[C@@H]1C)N1C[C@H](Cc2ccc(O)cc2)NC1=N [1968-16] | 8.03 |
